pIC50 values by entry
- EXPERIMENTAL_TARGET: Polyphenol oxidase 2 (Agaricus bisporus)
- Sequence (O42713 whole entry): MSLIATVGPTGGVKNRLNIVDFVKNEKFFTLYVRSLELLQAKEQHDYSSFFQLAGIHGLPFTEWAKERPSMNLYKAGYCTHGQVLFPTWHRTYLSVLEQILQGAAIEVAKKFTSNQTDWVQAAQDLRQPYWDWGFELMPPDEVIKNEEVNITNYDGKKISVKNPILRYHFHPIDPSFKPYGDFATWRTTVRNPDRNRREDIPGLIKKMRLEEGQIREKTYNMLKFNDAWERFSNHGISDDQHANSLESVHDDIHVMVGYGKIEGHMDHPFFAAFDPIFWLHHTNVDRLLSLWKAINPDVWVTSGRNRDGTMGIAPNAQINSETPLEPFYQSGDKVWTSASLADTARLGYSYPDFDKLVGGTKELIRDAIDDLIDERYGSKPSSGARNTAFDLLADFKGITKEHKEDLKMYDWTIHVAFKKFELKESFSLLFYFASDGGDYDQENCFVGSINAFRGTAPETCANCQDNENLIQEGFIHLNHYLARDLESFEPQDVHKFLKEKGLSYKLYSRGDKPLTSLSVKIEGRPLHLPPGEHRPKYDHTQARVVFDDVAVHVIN
pIC50 (log units): -log10 of the concentration in mol/L.

Use these answered entries as a reference point.
CC(C)(C)c1ccc(CN(O)N=O)cc1 [N-nitrosohydroxylamine N-substituted, 11] = 4.80
O=NN(O)Cc1cccc(O)c1 [N-nitrosohydroxylamine N-substituted, 5] = 4.69
O=NN(O)Cc1ccc(O)cc1O [N-nitrosohydroxylamine N-substituted, 7] = 4.94
O=NN(O)Cc1ccc(O)cc1 [N-nitrosohydroxylamine N-substituted, 6] = 4.86

Now examine the next entry.
Entry O=NN(O)Cc1ccccc1O [N-nitrosohydroxylamine N-substituted, 4] has what pIC50?
4.72

---

# Polyphenol oxidase 2 (Agaricus bisporus): IC50 values follow
# do not omit the unit; it follows the number

Use these answered entries as a reference point.
O=NN(O)Cc1cc(O)ccc1O [N-nitrosohydroxylamine N-substituted, 8] = 23.8 µM
O=NN(O)Cc1ccc(Cl)cc1 [N-nitrosohydroxylamine N-substituted, 9] = 13.1 µM

Entry COc1ccc(CN(O)N=O)cc1 [N-nitrosohydroxylamine N-substituted, 10] has what IC50?
9.7 µM
